- systemUnderTest: mouse OAZ1 (mOAZ1) (Mus musculus, UniProt P54369)
- Construct: Full-length mOAZ1 protein was successfully produced in E. coli; made in house; host or cells: Escherichia coli Rosetta (DE3)
- Sequence (P54369 whole entry): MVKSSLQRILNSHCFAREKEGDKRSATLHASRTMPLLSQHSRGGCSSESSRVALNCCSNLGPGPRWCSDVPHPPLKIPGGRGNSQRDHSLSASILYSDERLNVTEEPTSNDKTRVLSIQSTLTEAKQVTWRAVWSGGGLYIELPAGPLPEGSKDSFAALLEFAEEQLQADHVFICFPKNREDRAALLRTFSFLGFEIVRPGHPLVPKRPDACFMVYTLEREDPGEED
- experimentDescription: Isothermal titration calorimetry of polyamines binding to mOAZ1
- cond: ITC, under the conditions used
observedProperty: Binding to mOAZ1

{"givenSmiles": "NCCCNCCCCNCCCN", "observedProperty": "Binding to mOAZ1", "val": "bound to mOAZ1"}
{"givenSmiles": "NCCCCNCCCN", "observedProperty": "Binding to mOAZ1", "val": "bound to mOAZ1"}
{"givenSmiles": "CCNCCCNCCCNCCCNCC", "observedProperty": "Binding to mOAZ1", "val": "bound to mOAZ1"}

* * *

- systemUnderTest: mouse OAZ1 (mOAZ1) (Mus musculus, UniProt P54369)
- Construct: Full-length mOAZ1 protein was successfully produced in E. coli; made in house; host or cells: Escherichia coli Rosetta (DE3)
- experimentDescription: Isothermal titration calorimetry of polyamines binding to mOAZ1
- cond: ITC, 31 °C, pH 7.5; SD did not exceed ±20%
Label Criterion met when ΔH (enthalpy variation) is at or above -4 kcal/mol; anything below gets Criterion not met.

Record excerpt, results attached:
{"compound": "CC(CCN)NCCCCN (stereo not shown) [3-MeSpd]", "className": "Criterion met"}
{"compound": "NCCCNCCCCNCCCN [Spm, spermine]", "className": "Criterion met"}
{"compound": "CCNCCCNCCCNCCCNCC [DENSpm, N^1,N^11-diethylnorspermine]", "className": "Criterion not met"}
{"compound": "CC(N)CCNCCCCN (stereo not shown) [1-MeSpd]", "className": "Criterion met"}

Turning now to a further record.
Q: Could you tell me if the measured ΔH (enthalpy variation) of NCCCCNCCCN [Spd, spermidine] reaches -4 kcal/mol or more?
A: Criterion met
